# ASSAY_TARGET: T1, corticotropin releasing factor 2 receptor
# T1 sequence (Q13324 whole entry, species assumed, looked up): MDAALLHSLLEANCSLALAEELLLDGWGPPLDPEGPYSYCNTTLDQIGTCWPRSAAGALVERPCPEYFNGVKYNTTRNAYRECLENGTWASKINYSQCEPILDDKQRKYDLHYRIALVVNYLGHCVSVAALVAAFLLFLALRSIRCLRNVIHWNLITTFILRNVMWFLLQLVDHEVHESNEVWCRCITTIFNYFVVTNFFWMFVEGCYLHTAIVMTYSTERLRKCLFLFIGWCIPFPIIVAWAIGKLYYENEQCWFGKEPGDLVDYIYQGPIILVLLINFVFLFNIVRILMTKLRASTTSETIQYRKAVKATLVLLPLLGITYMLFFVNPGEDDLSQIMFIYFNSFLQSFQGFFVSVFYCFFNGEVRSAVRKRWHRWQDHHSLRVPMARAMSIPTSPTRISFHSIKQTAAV
# METHOD_DESCRIPTION: cell-based or functional assay
Ends that are not written are not given here.
For each entry below, report its CRF2R EC50 value.

Provide CRF2R EC50 value for the following binder: IVLSLDVPIGLLQILLEQARARAAREQATTNARILARV (ends and bridges not checked) [human urocortin II fragment]
3.64 nM

Provide CRF2R EC50 value for the following binder: DNPSLSIDLTFHLLRTLLELARTQSQRERAEQNRIIFDSV (ends and bridges not checked) [human urocortin I fragment]
3.52 nM

Provide CRF2R EC50 value for the following binder: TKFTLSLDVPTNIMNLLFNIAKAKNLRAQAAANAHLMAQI (ends and bridges not checked) [human urocortin III fragment]
> 100 nM

Provide CRF2R EC50 value for the following binder: SQEPPISLDLTFHLLREVLEMTKADQLAQQAHSNRKLLDIA (ends and bridges not checked) [ovine corticotropin releasing factor fragment]
> 100 nM

Provide CRF2R EC50 value for the following binder: SEEPPISLDLTFHLLREVLEMARAEQLAQQAHSNRKLMEII (ends and bridges not checked) [human corticotropin releasing factor fragment]
49.2 nM
